B1: ZNF263 (parent)
chain: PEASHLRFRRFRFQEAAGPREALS

variants of: B1; assay: protein stability index of a GFP-peptide fusion (GPS, HEK-293T) (PSI 1-6); higher = more stable; details: c terminus: a fixed tail appended;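 further: lentivirally expressed fusions sorted by FACS into six bins by GFP to DsRed ratio, PSI derived from sequencing read proportions per bin multiplied by bin number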
protein stability index values by entry

Consider the worked cases shown below.
H5Q    3.04
A16H    3
R10Q    3.07
H5M    3.39
R7A    3.14

Item `L6R` has what recorded protein stability index?
3.06

Item `E21T` has what recorded protein stability index?
2.66

Item `A16F` has what recorded protein stability index?
1.59

Item `A16G` has what recorded protein stability index?
2.43

Item `A17S` has what recorded protein stability index?
2.54

Item `R20I` has what recorded protein stability index?
2.48

Item `G18A` has what recorded protein stability index?
2.27

Item `E15F` has what recorded protein stability index?
1.53

Item `A3C` has what recorded protein stability index?
2.95

Item `E2V` has what recorded protein stability index?
2.12
